Origin of the recorded values: PubChem BioAssay

# assay-system: Neurogenic locus notch homolog protein 2 (Homo sapiens) (UniProt Q04721)
# Sequence (Q04721 whole entry, looked up): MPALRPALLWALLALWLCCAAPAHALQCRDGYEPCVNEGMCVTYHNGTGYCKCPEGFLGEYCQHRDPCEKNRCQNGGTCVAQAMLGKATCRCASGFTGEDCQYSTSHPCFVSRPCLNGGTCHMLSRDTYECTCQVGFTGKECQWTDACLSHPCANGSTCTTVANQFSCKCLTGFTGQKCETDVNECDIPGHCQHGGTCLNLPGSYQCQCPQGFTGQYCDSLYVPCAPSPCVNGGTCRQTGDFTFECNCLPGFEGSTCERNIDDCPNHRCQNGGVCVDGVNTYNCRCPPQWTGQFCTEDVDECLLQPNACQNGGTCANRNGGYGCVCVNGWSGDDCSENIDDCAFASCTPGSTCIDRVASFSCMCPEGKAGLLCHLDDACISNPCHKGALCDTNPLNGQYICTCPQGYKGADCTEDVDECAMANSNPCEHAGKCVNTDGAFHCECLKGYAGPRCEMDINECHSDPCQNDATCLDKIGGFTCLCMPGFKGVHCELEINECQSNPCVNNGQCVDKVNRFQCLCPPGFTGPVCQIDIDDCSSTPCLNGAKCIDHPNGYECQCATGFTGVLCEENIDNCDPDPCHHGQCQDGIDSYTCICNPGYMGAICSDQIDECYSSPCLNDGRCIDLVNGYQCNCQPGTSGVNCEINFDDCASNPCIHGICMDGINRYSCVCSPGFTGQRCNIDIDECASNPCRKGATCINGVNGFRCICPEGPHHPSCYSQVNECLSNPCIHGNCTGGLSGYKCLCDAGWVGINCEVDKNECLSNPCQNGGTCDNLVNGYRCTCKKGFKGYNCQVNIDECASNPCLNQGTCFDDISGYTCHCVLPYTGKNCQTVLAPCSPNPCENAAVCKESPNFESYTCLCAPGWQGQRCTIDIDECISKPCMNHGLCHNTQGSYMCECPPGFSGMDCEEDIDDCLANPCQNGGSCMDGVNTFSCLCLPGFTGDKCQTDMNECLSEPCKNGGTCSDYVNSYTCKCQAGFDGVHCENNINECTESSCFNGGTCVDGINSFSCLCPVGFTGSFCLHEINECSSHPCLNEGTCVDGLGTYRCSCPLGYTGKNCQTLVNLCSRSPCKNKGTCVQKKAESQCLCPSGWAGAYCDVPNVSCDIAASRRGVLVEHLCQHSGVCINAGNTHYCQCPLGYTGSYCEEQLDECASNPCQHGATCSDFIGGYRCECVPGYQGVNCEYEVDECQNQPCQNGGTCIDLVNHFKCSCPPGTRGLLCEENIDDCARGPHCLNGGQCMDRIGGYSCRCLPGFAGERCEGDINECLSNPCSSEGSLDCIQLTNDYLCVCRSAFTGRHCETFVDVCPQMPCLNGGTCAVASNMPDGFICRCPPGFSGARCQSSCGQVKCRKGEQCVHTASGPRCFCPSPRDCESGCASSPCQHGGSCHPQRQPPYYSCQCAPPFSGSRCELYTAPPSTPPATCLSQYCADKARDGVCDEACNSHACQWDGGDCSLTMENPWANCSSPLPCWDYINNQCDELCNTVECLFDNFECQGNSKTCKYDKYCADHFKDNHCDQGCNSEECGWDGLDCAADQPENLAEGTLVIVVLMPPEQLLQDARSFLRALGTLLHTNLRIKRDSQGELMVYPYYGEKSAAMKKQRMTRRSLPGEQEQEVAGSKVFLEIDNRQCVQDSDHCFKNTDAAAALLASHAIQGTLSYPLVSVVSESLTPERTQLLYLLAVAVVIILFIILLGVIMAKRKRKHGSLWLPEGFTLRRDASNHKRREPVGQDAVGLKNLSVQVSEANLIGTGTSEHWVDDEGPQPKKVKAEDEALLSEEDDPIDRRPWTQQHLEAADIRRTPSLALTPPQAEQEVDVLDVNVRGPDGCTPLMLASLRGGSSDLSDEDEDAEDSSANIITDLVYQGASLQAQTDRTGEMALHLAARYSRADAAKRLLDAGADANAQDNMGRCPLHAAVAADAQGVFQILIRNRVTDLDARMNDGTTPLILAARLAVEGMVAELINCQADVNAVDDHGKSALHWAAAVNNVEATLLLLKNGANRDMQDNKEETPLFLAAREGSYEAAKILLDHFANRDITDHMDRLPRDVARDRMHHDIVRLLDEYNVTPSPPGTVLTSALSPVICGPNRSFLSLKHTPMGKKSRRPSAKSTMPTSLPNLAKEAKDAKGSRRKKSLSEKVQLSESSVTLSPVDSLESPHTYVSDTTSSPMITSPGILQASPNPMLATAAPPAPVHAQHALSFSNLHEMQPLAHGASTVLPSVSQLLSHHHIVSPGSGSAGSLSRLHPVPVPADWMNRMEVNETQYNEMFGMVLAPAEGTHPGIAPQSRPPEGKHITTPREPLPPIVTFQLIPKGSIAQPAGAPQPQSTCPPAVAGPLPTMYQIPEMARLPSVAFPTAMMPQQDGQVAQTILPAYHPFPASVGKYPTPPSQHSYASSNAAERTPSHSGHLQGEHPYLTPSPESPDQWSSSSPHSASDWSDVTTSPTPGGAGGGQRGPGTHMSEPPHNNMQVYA
# run-description: small molecules binding Notch2 protein – biochemical, small-molecule microarray, 635 nm fluorescence, stem cell growth factors, primary screen (AID 1073)
# settings: higher = more signal
readout-name: composite z-score
Write the value as a bare number.

molecule	readout-name	observed-measurement
COc1cc2c(cc1O)C(c1cccs1)N(Cc1ccc([N+](=O)[O-])o1)CC2 (centres undefined)	composite z-score	0.881

composite z-score value, target or system Neurogenic locus notch homolog protein 2 (Homo sapiens) (UniProt Q04721), for "C=C(CCCC)/C(=C/C[C@H](OC(C)=O)c1ccccc1OCCO)c1cnc2ccccc2c1" : 0.3

composite z-score value, target or system Neurogenic locus notch homolog protein 2 (Homo sapiens) (UniProt Q04721), for O=C1OCC=C[C@H]2OC34C=CCN(Cn5nnc6ccccc65)C(=O)[C@H]3N(CCCCCO)C(=O)[C@@H]4[C@@H]12 (some centres undefined) : -0.637

composite z-score value, target or system Neurogenic locus notch homolog protein 2 (Homo sapiens) (UniProt Q04721), for "COC(=O)[C@@]1(Cc2ccc(F)cc2)[C@H]2c3cc(C(=O)N(C)C)n(Cc4cc(C)n(C)n4)c3C[C@H]2CN1C(=O)c1ccccc1" : 1.61

* * *

# composite z-score values compiled below
# run-description: small molecules captured by biotinylated probe aFGF10 – biochemical, small-molecule microarray, fluorescence 635/667, stem cell growth factor project, primary screen (AID 1071);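 further: score merges 667 nm spot intensity and signal to noise from triplicate slides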
# settings: higher = more signal
Write the value as a bare number.

Known composite z-score results, listed for orientation:
compound	observed-measurement
CN(C)CCCCCCNC(=O)[C@@H]1C[C@@H]2C(=O)N[C@@H](CCCC[N+](C)(C)C)C(=O)N2[C@@H]1c1ccc(O)cc1	-0.0779
COC(=O)c1c(CC[C@@H](CO)NC(=O)N[C@H](Cc2ccccc2)Cn2cc(-c3ccccn3)nn2)oc(C(C)=O)c1C(=O)OC	0.19
CC(C)Cc1ccc(CN2CC[C@@H](N)C2)cc1	-0.711

Sure, the documented composite z-score for "O=C1O[C@H](c2ccccc2)[C@H](c2ccccc2)N2[C@H]1[C@@H](C(=O)NC[C@H](O)c1ccccc1)[C@]1(C(=O)Nc3ccccc31)[C@H]2c1ccc(O)cc1" is -0.111

Sure, the documented composite z-score for "COC(=O)C(CC#Cc1ccc2c(c1)[C@]1(C(=O)N2)[C@H](c2ccc(O)cc2)N2[C@H](c3ccccc3)[C@H](c3ccccc3)OC(=O)[C@H]2[C@@H]1C(=O)N1CCN(c2ncccn2)CC1)C(=O)OC" is 0.349

Sure, the documented composite z-score for "COc1ccc(CCNC(=O)[C@@]2(C)c3ccccc3C(=O)N(c3ccc(C)cn3)[C@H]2c2ccc(CO)cc2)cc1" is -0.516

* * *

# run-description: JC-1 mitochondrial signal, unstimulated HepG2 cells – cell-based, JC-1 fluorescence, 24 h, 100 nL compound, profiling panel (AID 1167); further: test concentration not given here
# settings: HepG2 mitochondrial potential, higher = more signal
readout-name: z-score
Write the value as a bare number.

compound	observed-measurement
C=CCC(OC(C)=O)[C@@H]1[C@@H](N(Cc2ccc(-c3cccc(C(F)(F)F)c3)o2)C(=O)c2cccc3ccccc23)c2cc(OCCCO)ccc2N1C(=O)Cc1ccc2ccccc2c1 (some centres undefined)	1.1

Sure, the documented z-score for CC1CC/C=C\[C@H]2OC34C=CCN(Cn5nnc6ccccc65)C(=O)[C@H]3N(CCCCCO)C(=O)[C@@H]4C2C(=O)O1 (some centres undefined) is 0.944

Sure, the documented z-score for "COCCOC(=O)N1C(=O)[C@@]2(c3ccccc31)[C@H](C(N)=O)[C@H]1C(=O)O[C@H](c3ccccc3)[C@H](c3ccccc3)N1[C@@H]2c1ccc(O)cc1" is -0.244

Sure, the documented z-score for "COC(=O)[C@@]1(Cc2ccccc2)[C@H]2c3cc(C(=O)N(C)C)n(Cc4ccc(OC)c(OC)c4)c3C[C@H]2CN1C(=O)c1ccccc1" is 0.811
